So I've got a bunch of molecules here, and I need their relative viability values.
# System: NCI-H3122
# protocol_text: relative viability (nuclei count vs DMSO), 5 days (fraction); higher = more cells survive
# condition_set: first compound 0.1 µM
One number for each entry.

These solved cases illustrate the format of a correct answer.
{"molecule": "Cc1cn(-c2cc(NC(=O)c3ccc(C)c(Nc4nccc(-c5cccnc5)n4)c3)cc(C(F)(F)F)c2)cn1 [Nilotinib] + O=C(c1cc(Cc2n[nH]c(=O)c3ccccc23)ccc1F)N1CCN(C(=O)C2CC2)CC1 [Olaparib] (partner 8 µM)", "parameter_measured": "relative viability", "readout_number": 0.721}
{"molecule": "Cc1cn(-c2cc(NC(=O)c3ccc(C)c(Nc4nccc(-c5cccnc5)n4)c3)cc(C(F)(F)F)c2)cn1 [Nilotinib] + CC(C)C[C@H](NC(=O)[C@H](Cc1ccccc1)NC(=O)c1cnccn1)B(O)O [Bortezomib] (partner 0.002 µM)", "parameter_measured": "relative viability", "readout_number": 0.962}
{"molecule": "Cc1cn(-c2cc(NC(=O)c3ccc(C)c(Nc4nccc(-c5cccnc5)n4)c3)cc(C(F)(F)F)c2)cn1 [Nilotinib] + CC1(C)CCC(c2ccc(Cl)cc2)=C(CN2CCN(c3ccc(C(=O)NS(=O)(=O)c4ccc(N[C@H](CCN5CCOCC5)CSc5ccccc5)c(S(=O)(=O)C(F)(F)F)c4)cc3)CC2)C1 [Navitoclax] (partner 0.5 µM)", "parameter_measured": "relative viability", "readout_number": 0.831}

For the next question, use this molecule.
Q: Param item = Cc1cn(-c2cc(NC(=O)c3ccc(C)c(Nc4nccc(-c5cccnc5)n4)c3)cc(C(F)(F)F)c2)cn1 [Nilotinib] + C[C@]1(O)C[C@@H](c2nc(-c3ccc4ccc(-c5ccccc5)nc4c3)c3c(N)nccn32)C1 [Linsitinib] (partner 1 µM) ; retrieve measured relative viability.
A: 0.833

----------
# Test system: SW 900
# protocol_text: relative viability (nuclei count vs DMSO), 5 days (fraction); higher = more cells survive
# condition_set: first compound 0.002 µM
So I've got a bunch of compounds here, and I need their relative viability values.

{"compound": "CCNC(=O)c1noc(-c2cc(C(C)C)c(O)cc2O)c1-c1ccc(CN2CCOCC2)cc1 [Luminespib] + N=C(N)NC(=N)NCCc1ccccc1 [Phenformin] (partner 250 µM)", "system": "SW 900", "result": 0.625}

State the recorded relative viability for every item in the following list.
1. CCNC(=O)c1noc(-c2cc(C(C)C)c(O)cc2O)c1-c1ccc(CN2CCOCC2)cc1 [Luminespib] + COc1cccc2cc(-c3nc([C@H]4CC[C@H](C(=O)O)CC4)n4ncnc(N)c34)[nH]c12 [OSI-027] (partner 0.5 µM)
2. CCNC(=O)c1noc(-c2cc(C(C)C)c(O)cc2O)c1-c1ccc(CN2CCOCC2)cc1 [Luminespib] + Nc1ncn([C@H]2C[C@H](O)[C@@H](CO)O2)c(=O)n1 [Decitabine] (partner 2 µM)
3. CCNC(=O)c1noc(-c2cc(C(C)C)c(O)cc2O)c1-c1ccc(CN2CCOCC2)cc1 [Luminespib] + CC(=O)c1c(C)c2cnc(Nc3ccc(N4CCNCC4)cn3)nc2n(C2CCCC2)c1=O [Palbociclib] (partner 0.5 µM)
4. CCNC(=O)c1noc(-c2cc(C(C)C)c(O)cc2O)c1-c1ccc(CN2CCOCC2)cc1 [Luminespib] + Cc1cc(Nc2cc(N3CCN(C)CC3)nc(Sc3ccc(NC(=O)C4CC4)cc3)n2)n[nH]1 [Tozasertib] (partner 0.1 µM)

A:
1: 0.502; 2: 0.478; 3: 0.577; 4: 0.638

Q: Param item = CCNC(=O)c1noc(-c2cc(C(C)C)c(O)cc2O)c1-c1ccc(CN2CCOCC2)cc1 [Luminespib] + NC(=O)Nc1cc(-c2cccc(F)c2)sc1C(=O)N[C@H]1CCCNC1 [AZD7762] (partner 0.2 µM) ; retrieve measured relative viability.
A: 0.667

----------
# System: NCI-H1395
# protocol_text: relative viability (nuclei count vs DMSO), 5 days (fraction); higher = more cells survive
# condition_set: first compound 0.6325 µM
Fulfilled if relative viability is below 0.7. Not fulfilled if not; exact matches included in Not fulfilled.

{"compound": "Cc1csc(=NC2CCCCC2)n1/N=C/c1ccc(O)c(O)c1O [MIM1] + Nc1nc2[nH]cc(CCc3ccc(C(=O)N[C@@H](CCC(=O)O)C(=O)O)cc3)c2c(=O)[nH]1 [Pemetrexed] (partner 0.2 µM)", "class_name": "Not fulfilled"}

Q: relative viability under 0.7? Item: CN1CCN(CCOc2cc(OC3CCOCC3)c3c(Nc4c(Cl)ccc5c4OCO5)ncnc3c2)CC1 [Saracatinib] + CS(=O)(=O)CCNCc1ccc(-c2ccc3ncnc(Nc4ccc(OCc5cccc(F)c5)c(Cl)c4)c3c2)o1 [Lapatinib] (partner 2 µM)
A: Not fulfilled

----------
So I've got a bunch of compounds here, and I need their relative viability values.
# System: BEN
# protocol_text: relative viability (nuclei count vs DMSO), 5 days (fraction); higher = more cells survive
# condition_set: first compound 0.02 µM
Numbers only.

These solved cases illustrate the format of a correct answer.
{"compound": "CN1CCN(CCOc2cc(OC3CCOCC3)c3c(Nc4c(Cl)ccc5c4OCO5)ncnc3c2)CC1 [Saracatinib] + C[C@@H](Oc1cc(-c2cnn(C3CCNCC3)c2)cnc1N)c1c(Cl)ccc(F)c1Cl [Crizotinib] (partner 1 µM)", "system": "BEN", "parameter_measured": "relative viability", "readout_number": 0.77}
{"compound": "CCNC(=O)c1noc(-c2cc(C(C)C)c(O)cc2O)c1-c1ccc(CN2CCOCC2)cc1 [Luminespib] + CS(=O)(=O)N1CCN(Cc2cc3nc(-c4cccc5[nH]ncc45)nc(N4CCOCC4)c3s2)CC1 [Pictilisib] (partner 1 µM)", "system": "BEN", "parameter_measured": "relative viability", "readout_number": 0.332}

Q: Param item = CCNC(=O)c1noc(-c2cc(C(C)C)c(O)cc2O)c1-c1ccc(CN2CCOCC2)cc1 [Luminespib] + Cc1nc(Nc2ncc(C(=O)Nc3c(C)cccc3Cl)s2)cc(N2CCN(CCO)CC2)n1 [Dasatinib] (partner 0.075 µM) ; retrieve measured relative viability.
A: 0.263

----------
# Tested on: NCI-H2085
# protocol_text: relative viability (nuclei count vs DMSO), 5 days (fraction); higher = more cells survive
# condition_set: first compound 0.001 µM
So I've got a bunch of compounds here, and I need their relative viability values.
One number for each entry.

These solved cases illustrate the format of a correct answer.
{"compound": "Cc1cn(-c2cc(NC(=O)c3ccc(C)c(Nc4nccc(-c5cccnc5)n4)c3)cc(C(F)(F)F)c2)cn1 [Nilotinib] + CC(C)C[C@H](NC(=O)[C@H](Cc1ccccc1)NC(=O)c1cnccn1)B(O)O [Bortezomib] (partner 0.002 µM)", "parameter_measured": "relative viability", "readout_number": 1.11}
{"compound": "Cc1cn(-c2cc(NC(=O)c3ccc(C)c(Nc4nccc(-c5cccnc5)n4)c3)cc(C(F)(F)F)c2)cn1 [Nilotinib] + CS(=O)(=O)N1CCN(Cc2cc3nc(-c4cccc5[nH]ncc45)nc(N4CCOCC4)c3s2)CC1 [Pictilisib] (partner 1 µM)", "parameter_measured": "relative viability", "readout_number": 0.435}
{"compound": "Cc1cn(-c2cc(NC(=O)c3ccc(C)c(Nc4nccc(-c5cccnc5)n4)c3)cc(C(F)(F)F)c2)cn1 [Nilotinib] + Nc1nc2[nH]cc(CCc3ccc(C(=O)N[C@@H](CCC(=O)O)C(=O)O)cc3)c2c(=O)[nH]1 [Pemetrexed] (partner 0.2 µM)", "parameter_measured": "relative viability", "readout_number": 0.981}
{"compound": "Cc1cn(-c2cc(NC(=O)c3ccc(C)c(Nc4nccc(-c5cccnc5)n4)c3)cc(C(F)(F)F)c2)cn1 [Nilotinib] + C[C@@H](Oc1cc(-c2cnn(C3CCNCC3)c2)cnc1N)c1c(Cl)ccc(F)c1Cl [Crizotinib] (partner 1 µM)", "parameter_measured": "relative viability", "readout_number": 0.982}
{"compound": "Cc1cn(-c2cc(NC(=O)c3ccc(C)c(Nc4nccc(-c5cccnc5)n4)c3)cc(C(F)(F)F)c2)cn1 [Nilotinib] + O=C(c1cc(Cc2n[nH]c(=O)c3ccccc23)ccc1F)N1CCN(C(=O)C2CC2)CC1 [Olaparib] (partner 8 µM)", "parameter_measured": "relative viability", "readout_number": 0.747}

For the next question, use this compound.
Q: Param item = Cc1cn(-c2cc(NC(=O)c3ccc(C)c(Nc4nccc(-c5cccnc5)n4)c3)cc(C(F)(F)F)c2)cn1 [Nilotinib] + Cc1nc(NC(=O)N2CCC[C@H]2C(N)=O)sc1-c1ccnc(C(C)(C)C(F)(F)F)c1 [Alpelisib] (partner 2 µM) ; retrieve measured relative viability.
A: 0.967

----------
# Tested on: NCI-H1651
# protocol_text: relative viability (nuclei count vs DMSO), 5 days (fraction); higher = more cells survive
# condition_set: first compound 0.003162 µM
So I've got a bunch of molecules here, and I need their relative viability values.
Answers are plain numbers.

{"molecule": "Cc1cn(-c2cc(NC(=O)c3ccc(C)c(Nc4nccc(-c5cccnc5)n4)c3)cc(C(F)(F)F)c2)cn1 [Nilotinib] + CC(=O)Nc1cccc(-n2c(=O)n(C3CC3)c(=O)c3c(Nc4ccc(I)cc4F)n(C)c(=O)c(C)c32)c1 [Trametinib] (partner 0.02 µM)", "relative viability": 0.916}
{"molecule": "Cc1cn(-c2cc(NC(=O)c3ccc(C)c(Nc4nccc(-c5cccnc5)n4)c3)cc(C(F)(F)F)c2)cn1 [Nilotinib] + CS(=O)(=O)CCNCc1ccc(-c2ccc3ncnc(Nc4ccc(OCc5cccc(F)c5)c(Cl)c4)c3c2)o1 [Lapatinib] (partner 2 µM)", "relative viability": 0.803}
{"molecule": "Cc1cn(-c2cc(NC(=O)c3ccc(C)c(Nc4nccc(-c5cccnc5)n4)c3)cc(C(F)(F)F)c2)cn1 [Nilotinib] + COc1cc2c(Oc3ccc(NC(=O)C4(C(=O)Nc5ccc(F)cc5)CC4)cc3F)ccnc2cc1OCCCN1CCOCC1 [Foretinib] (partner 0.25 µM)", "relative viability": 0.922}

State the recorded relative viability for every item in the following list.
1. Cc1cn(-c2cc(NC(=O)c3ccc(C)c(Nc4nccc(-c5cccnc5)n4)c3)cc(C(F)(F)F)c2)cn1 [Nilotinib] + O=C(c1cc(Cc2n[nH]c(=O)c3ccccc23)ccc1F)N1CCN(C(=O)C2CC2)CC1 [Olaparib] (partner 8 µM)
2. Cc1cn(-c2cc(NC(=O)c3ccc(C)c(Nc4nccc(-c5cccnc5)n4)c3)cc(C(F)(F)F)c2)cn1 [Nilotinib] + CC1(C)CCC(c2ccc(Cl)cc2)=C(CN2CCN(c3ccc(C(=O)NS(=O)(=O)c4ccc(N[C@H](CCN5CCOCC5)CSc5ccccc5)c(S(=O)(=O)C(F)(F)F)c4)cc3)CC2)C1 [Navitoclax] (partner 0.5 µM)
3. Cc1cn(-c2cc(NC(=O)c3ccc(C)c(Nc4nccc(-c5cccnc5)n4)c3)cc(C(F)(F)F)c2)cn1 [Nilotinib] + Cc1nc(NC(=O)N2CCC[C@H]2C(N)=O)sc1-c1ccnc(C(C)(C)C(F)(F)F)c1 [Alpelisib] (partner 2 µM)

A:
1: 0.187; 2: 1.56; 3: 1.15
